This collection of values is drawn from patent US9783527B2.

Parameter pIC50: see the listing below.
- studyTarget: human Nav1.7 (Homo sapiens (Human), UniProt Q15858)
- Sequence (Q15858 whole entry): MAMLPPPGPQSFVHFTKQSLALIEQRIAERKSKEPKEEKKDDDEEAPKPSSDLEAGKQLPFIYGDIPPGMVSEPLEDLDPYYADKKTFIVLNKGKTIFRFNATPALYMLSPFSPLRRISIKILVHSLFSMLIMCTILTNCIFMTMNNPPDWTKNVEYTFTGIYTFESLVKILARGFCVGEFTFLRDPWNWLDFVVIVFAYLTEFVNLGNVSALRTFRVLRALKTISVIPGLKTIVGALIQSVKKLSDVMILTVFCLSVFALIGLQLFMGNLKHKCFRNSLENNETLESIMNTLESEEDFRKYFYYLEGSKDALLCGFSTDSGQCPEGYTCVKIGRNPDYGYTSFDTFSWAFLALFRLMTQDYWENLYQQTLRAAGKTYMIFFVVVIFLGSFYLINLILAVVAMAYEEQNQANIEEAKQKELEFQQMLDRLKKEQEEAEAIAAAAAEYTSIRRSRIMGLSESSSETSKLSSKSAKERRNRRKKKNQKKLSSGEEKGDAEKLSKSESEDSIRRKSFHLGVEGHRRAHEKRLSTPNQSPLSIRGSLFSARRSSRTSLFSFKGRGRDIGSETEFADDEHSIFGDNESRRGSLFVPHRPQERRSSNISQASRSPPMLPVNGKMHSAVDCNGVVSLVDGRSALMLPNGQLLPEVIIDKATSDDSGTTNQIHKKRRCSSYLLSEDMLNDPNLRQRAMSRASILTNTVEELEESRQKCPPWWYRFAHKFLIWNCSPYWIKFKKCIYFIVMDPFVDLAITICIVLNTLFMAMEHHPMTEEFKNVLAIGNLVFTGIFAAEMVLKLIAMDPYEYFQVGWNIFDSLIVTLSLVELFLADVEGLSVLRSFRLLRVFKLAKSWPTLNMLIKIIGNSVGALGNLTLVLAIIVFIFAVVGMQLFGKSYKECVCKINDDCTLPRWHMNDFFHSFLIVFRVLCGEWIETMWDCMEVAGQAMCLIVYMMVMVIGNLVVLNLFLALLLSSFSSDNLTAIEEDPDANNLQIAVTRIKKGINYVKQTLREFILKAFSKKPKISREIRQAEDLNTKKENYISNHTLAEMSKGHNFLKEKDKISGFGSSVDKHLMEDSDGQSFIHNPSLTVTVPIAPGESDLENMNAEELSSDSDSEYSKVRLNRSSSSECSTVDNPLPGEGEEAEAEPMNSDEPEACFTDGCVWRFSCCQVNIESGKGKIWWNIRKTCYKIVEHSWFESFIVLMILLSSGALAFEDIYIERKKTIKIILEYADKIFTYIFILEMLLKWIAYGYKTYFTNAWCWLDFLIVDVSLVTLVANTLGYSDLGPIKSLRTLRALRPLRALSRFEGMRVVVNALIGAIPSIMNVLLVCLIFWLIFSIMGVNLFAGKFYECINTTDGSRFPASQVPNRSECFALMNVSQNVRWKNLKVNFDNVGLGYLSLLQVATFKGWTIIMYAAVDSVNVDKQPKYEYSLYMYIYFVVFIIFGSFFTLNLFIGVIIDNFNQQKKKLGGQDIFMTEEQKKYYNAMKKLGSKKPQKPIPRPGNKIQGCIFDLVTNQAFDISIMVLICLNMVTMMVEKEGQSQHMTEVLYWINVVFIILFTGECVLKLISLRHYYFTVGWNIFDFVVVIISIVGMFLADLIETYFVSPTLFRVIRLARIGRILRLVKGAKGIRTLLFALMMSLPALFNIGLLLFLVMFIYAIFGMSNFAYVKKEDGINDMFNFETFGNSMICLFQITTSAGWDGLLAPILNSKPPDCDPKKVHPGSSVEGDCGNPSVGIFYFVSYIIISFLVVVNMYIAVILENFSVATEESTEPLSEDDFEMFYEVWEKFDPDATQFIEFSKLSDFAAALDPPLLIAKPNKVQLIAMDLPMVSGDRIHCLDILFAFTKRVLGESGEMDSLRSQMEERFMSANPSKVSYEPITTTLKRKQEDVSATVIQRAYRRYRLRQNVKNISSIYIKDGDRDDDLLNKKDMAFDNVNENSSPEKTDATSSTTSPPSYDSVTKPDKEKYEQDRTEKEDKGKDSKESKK
- protocolSummary: FRET-based membrane potential assay, recombinant human sodium channel Nav1.7
- runParameters: HEK293 cells stably expressing recombinant human Nav1.7; depolarization with veratridine (EC80) + scorpion venom
Remember the convention: pIC50 equals -log10 of concentration in molar.

Known pIC50 results, listed for orientation:
• O=C1N(CC(=O)N2C[C@H]3C[C@@H]2CO3)CCN1c1cccc2c1cnn2-c1ccccc1F [Example 25] = 6.30
• C[C@H]1CCCN1C(=O)CN1CCN(c2cccc3c2cnn3-c2ccccc2F)C1=O [Example 15] = 6.20
• O=C1N(Cc2cnco2)CCN1c1cccc2c1cnn2-c1ccccc1F [Example 231] = 5.44

Please look at the following compound next.
The reported pIC50 of the compound CC1(C)CCCN1C(=O)CN1CCN(c2cccc3c2cnn3-c2ccccc2F)C1=O [Example 172] was 5.59
